Every entry's value here was drawn from patent US6737383B1.

- System: surinam grass
- assay explanation: Test B pre/postemergence surinam grass
- Type: in vivo, Brachiaria decumbens
- condition parameters: Postemergence, Rate 250 g/ha; scale 0 to 10, 0 no effect, 10 complete control
readout type: B. signalgrass plant response rating
Please give the numeric answer without any surrounding text.

structure string	measured number
Cc1ccccc1Cn1c(=O)on(C(=O)N(c2ccc(F)cc2F)C(C)C)c1=O	0

Fill blank: measured B. signalgrass plant response rating of the compound Cc1cccc(Cl)c1-n1c(=O)on(C(=O)N(c2ccc(F)cc2)C(C)C)c1=O is ____.
0

Fill blank: measured B. signalgrass plant response rating of the compound Cc1cc(C)c(-n2c(=O)on(C(=O)N(c3ccc(F)cc3)C(C)C)c2=O)c(C)c1 is ____.
0

Fill blank: measured B. signalgrass plant response rating of the compound COC(=O)CCCn1c(=O)on(C(=O)N(c2ccc(F)cc2F)C(C)C)c1=O is ____.
6

---

- Tested on: crabgrass
- assay explanation: Test B pre/postemergence crabgrass
- Assay type: in vivo, Digitaria sanguinalis
- condition parameters: Preemergence, Rate 250 g/ha; scale of 0 to 10 where 0 is no effect and 10 is complete control
The entries below come with measured Crabgrass plant response rating values attached.
Please give the numeric answer without any surrounding text.

Below, each entry is followed by its recorded Crabgrass plant response rating result.
compound	Crabgrass plant response rating
CC(C)C(C)n1c(=O)on(C(=O)N(c2ccccc2)C(C)C)c1=O (stereo not drawn)	10
CCCCCCn1c(=O)on(C(=O)N(c2ccc(F)cc2)C(C)C)c1=O	9
CC1CC1n1c(=O)on(C(=O)N(c2ccc(Cl)cc2)C(C)C)c1=O (stereo not drawn)	9

Fill blank: measured Crabgrass plant response rating of the compound CCC(CC)n1c(=O)on(C(=O)N(c2ccccc2)C(C)C)c1=O is ____.
9

Fill blank: measured Crabgrass plant response rating of the compound CCN(CC)C(=O)Cn1c(=O)on(C(=O)N(c2ccc(F)cc2)C(C)C)c1=O is ____.
3

---

The entries below come with measured B. signalgrass plant response rating values attached.
- Tested on: surinam grass
- assay explanation: Test B pre/postemergence surinam grass
- Format: in vivo, Brachiaria decumbens
- condition parameters: Preemergence, Rate 62 g/ha; scale 0 to 10 (0 no effect, 10 complete control)
Please give the numeric answer without any surrounding text.

Below, each entry is followed by its recorded B. signalgrass plant response rating result.
compound	B. signalgrass plant response rating
CC(C)N(C(=O)n1oc(=O)n(C2CCCCC2)c1=O)c1ccc(F)cc1F [Compound 115]	2
CC(C)N(C(=O)n1oc(=O)n(CC[N+](=O)[O-])c1=O)c1ccc(F)cc1F [Compound 591]	0
CCC(C)n1c(=O)on(C(=O)N(c2ccccc2)C(C)C)c1=O (stereo not shown) [Compound 610]	6

Fill blank: measured B. signalgrass plant response rating of the compound Cc1ccccc1Cn1c(=O)on(C(=O)N(c2ccc(F)cc2F)C(C)C)c1=O [Compound 87] is ____.
0

Fill blank: measured B. signalgrass plant response rating of the compound CC(C)N(C(=O)n1oc(=O)n(CNC(=O)c2ccccc2)c1=O)c1ccccc1 [Compound 620] is ____.
0

---

- Tested on: wild oat
- assay explanation: Test B pre/postemergence wild oat
- Format: in vivo, Avena fatua
- condition parameters: Preemergence, Rate 500 g/ha; scale 0 to 10 (0 no effect, 10 complete control)
readout type: Wild oats plant response rating
Please give the numeric answer without any surrounding text.

compound	Wild oats plant response rating
CC(C)N(C(=O)n1oc(=O)n(Cc2ccccc2Cl)c1=O)c1ccc(F)cc1 [Compound 140]	1
CC(C)N(C(=O)n1oc(=O)n(-c2ccnn2C)c1=O)c1ccc(F)cc1 [Compound 124]	0

Fill blank: measured Wild oats plant response rating of the compound Cc1nn(C)c(Cl)c1-n1c(=O)on(C(=O)N(c2ccccc2)C(C)C)c1=O [Compound 121] is ____.
6

Fill blank: measured Wild oats plant response rating of the compound Cc1ccccc1-n1c(=O)on(C(=O)N(c2ccc(Cl)cc2Cl)C(C)C)c1=O [Compound 185] is ____.
0

Fill blank: measured Wild oats plant response rating of the compound CC(C)c1noc(C(C)C)c1-n1c(=O)on(C(=O)N(c2ccc(F)cc2)C(C)C)c1=O [Compound 135] is ____.
0

Fill blank: measured Wild oats plant response rating of the compound CC(C)N(C(=O)n1oc(=O)n(C(C)(C)C)c1=O)c1ccc(Cl)cc1 [Compound 118] is ____.
6

---

- System: blackgrass
- assay explanation: Test B pre/postemergence blackgrass
- Assay type: in vivo, Alopecurus myosuroides
- condition parameters: Preemergence, Rate 125 g/ha; scale of 0 to 10 where 0 is no effect and 10 is complete control
The entries below come with measured Plant response rating, Blackgrass values attached.
Please give the numeric answer without any surrounding text.

Below, each entry is followed by its recorded Plant response rating, Blackgrass result.
compound	measured number
COC(=O)C(c1ccccc1)n1c(=O)on(C(=O)N(c2ccc(Cl)cc2)C(C)C)c1=O (stereo not shown)	0
CC(C)N(C(=O)n1oc(=O)n(CCCCl)c1=O)c1ccc(Cl)cc1	2
CC(C)N(C(=O)n1oc(=O)n(CC2CCCCO2)c1=O)c1ccc(F)cc1F (stereo not shown)	9

Record lookup: for blackgrass, what Plant response rating, Blackgrass belongs to COCC(OC)n1c(=O)on(C(=O)N(c2ccccc2)C(C)C)c1=O (stereo not shown) ?
9

Record lookup: for blackgrass, what Plant response rating, Blackgrass belongs to CC(=O)NCn1c(=O)on(C(=O)N(c2ccc(F)cc2)C(C)C)c1=O ?
0

Record lookup: for blackgrass, what Plant response rating, Blackgrass belongs to CC(C)N(C(=O)n1oc(=O)n(C(C)Cl)c1=O)c1ccccc1 (stereo not shown) ?
0

Record lookup: for blackgrass, what Plant response rating, Blackgrass belongs to CC(C)N(C(=O)n1oc(=O)n(C[C@H](C)Cl)c1=O)c1ccc(Cl)cc1 ?
3

Record lookup: for blackgrass, what Plant response rating, Blackgrass belongs to CC(C)N(C(=O)n1oc(=O)n(C(C)C=O)c1=O)c1ccccc1 (stereo not shown) ?
0

Record lookup: for blackgrass, what Plant response rating, Blackgrass belongs to CC(C)N(C(=O)n1oc(=O)n(CCl)c1=O)c1ccccc1 ?
0

Record lookup: for blackgrass, what Plant response rating, Blackgrass belongs to CC(C)N(C(=O)n1oc(=O)n(C(C)C2CCC2)c1=O)c1ccc(F)cc1 (stereo not shown) ?
9

---

The entries below come with measured Plant response rating, B. signalgrass values attached.
- Test system: surinam grass
- assay explanation: Test B pre/postemergence surinam grass
- Format: in vivo, Brachiaria decumbens
- condition parameters: Postemergence, Rate 500 g/ha; scale 0 to 10, 0 is no effect, 10 is complete control
Please give the numeric answer without any surrounding text.

Below, each entry is followed by its recorded Plant response rating, B. signalgrass result.
compound	readout type	measured number
CC(C)N(C(=O)n1oc(=O)n(C(C)C(=O)c2ccccc2)c1=O)c1ccc(F)cc1F (centres unmarked)	Plant response rating, B. signalgrass	3
CC(C)N(C(=O)n1oc(=O)n(CCCCF)c1=O)c1ccc(F)cc1F	Plant response rating, B. signalgrass	7
CC(C)N(C(=O)n1oc(=O)n(CC(=O)C2CC2)c1=O)c1ccc(F)cc1F	Plant response rating, B. signalgrass	7

Fill blank: measured Plant response rating, B. signalgrass of the compound CC(C)N(C(=O)n1oc(=O)n(CC(=O)C2CC2)c1=O)c1ccccc1 is ____.
8

Fill blank: measured Plant response rating, B. signalgrass of the compound CC(C)N(C(=O)n1oc(=O)n(CC2CCC2)c1=O)c1ccc(F)cc1F is ____.
3

---

- Tested on: crabgrass
- assay explanation: Test B pre/postemergence crabgrass
- Assay type: in vivo, Digitaria sanguinalis
- condition parameters: Preemergence, Rate 500 g/ha; scale of 0 to 10 where 0 is no effect and 10 is complete control
readout type: Crabgrass plant response rating

Below, each entry is followed by its recorded Crabgrass plant response rating result.
compound	target or system	readout type	result
C=CCn1c(=O)on(C(=O)N(CC)C2CCCCC2)c1=O [Compound 307]	crabgrass	Crabgrass plant response rating	2
CC(C)N(C(=O)n1oc(=O)n(CCCC(F)(F)F)c1=O)c1ccccc1 [Compound 585]	crabgrass	Crabgrass plant response rating	10
CC(C)C(C)n1c(=O)on(C(=O)N(c2ccccc2)C(C)C)c1=O (stereo not drawn) [Compound 355]	crabgrass	Crabgrass plant response rating	10
CC(C)N(C(=O)n1oc(=O)n(N2C(C)CCCC2C)c1=O)c1ccc(F)cc1 (stereo not drawn) [Compound 382]	crabgrass	Crabgrass plant response rating	10
CC(C)n1c(=O)on(C(=O)N(c2ccc(Cl)cc2Cl)C2CCC2)c1=O [Compound 319]	crabgrass	Crabgrass plant response rating	3

Fill blank: measured Crabgrass plant response rating of the compound CCCCCCn1c(=O)on(C(=O)N(c2ccc(F)cc2)C(C)C)c1=O [Compound 389] is ____.
10

Fill blank: measured Crabgrass plant response rating of the compound CCN(CC)C(=O)Cn1c(=O)on(C(=O)N(c2ccccc2)C(C)C)c1=O [Compound 571] is ____.
3

Fill blank: measured Crabgrass plant response rating of the compound CCC=CCn1c(=O)on(C(=O)N(c2ccccc2)C(C)C)c1=O [Compound 582] is ____.
7

Fill blank: measured Crabgrass plant response rating of the compound CC(C)N(C(=O)n1oc(=O)n(CCC2OCCCO2)c1=O)c1ccccc1 [Compound 561] is ____.
9
